Could you please report measured pKd for the items listed next?
- SYSTEM_UNDER_TEST: T1, EsCas13d, nuclease-dead (Eubacterium siraeum, UniProt B0MS50, R295A;H300A;R849A;H854A)
- T1 sequence: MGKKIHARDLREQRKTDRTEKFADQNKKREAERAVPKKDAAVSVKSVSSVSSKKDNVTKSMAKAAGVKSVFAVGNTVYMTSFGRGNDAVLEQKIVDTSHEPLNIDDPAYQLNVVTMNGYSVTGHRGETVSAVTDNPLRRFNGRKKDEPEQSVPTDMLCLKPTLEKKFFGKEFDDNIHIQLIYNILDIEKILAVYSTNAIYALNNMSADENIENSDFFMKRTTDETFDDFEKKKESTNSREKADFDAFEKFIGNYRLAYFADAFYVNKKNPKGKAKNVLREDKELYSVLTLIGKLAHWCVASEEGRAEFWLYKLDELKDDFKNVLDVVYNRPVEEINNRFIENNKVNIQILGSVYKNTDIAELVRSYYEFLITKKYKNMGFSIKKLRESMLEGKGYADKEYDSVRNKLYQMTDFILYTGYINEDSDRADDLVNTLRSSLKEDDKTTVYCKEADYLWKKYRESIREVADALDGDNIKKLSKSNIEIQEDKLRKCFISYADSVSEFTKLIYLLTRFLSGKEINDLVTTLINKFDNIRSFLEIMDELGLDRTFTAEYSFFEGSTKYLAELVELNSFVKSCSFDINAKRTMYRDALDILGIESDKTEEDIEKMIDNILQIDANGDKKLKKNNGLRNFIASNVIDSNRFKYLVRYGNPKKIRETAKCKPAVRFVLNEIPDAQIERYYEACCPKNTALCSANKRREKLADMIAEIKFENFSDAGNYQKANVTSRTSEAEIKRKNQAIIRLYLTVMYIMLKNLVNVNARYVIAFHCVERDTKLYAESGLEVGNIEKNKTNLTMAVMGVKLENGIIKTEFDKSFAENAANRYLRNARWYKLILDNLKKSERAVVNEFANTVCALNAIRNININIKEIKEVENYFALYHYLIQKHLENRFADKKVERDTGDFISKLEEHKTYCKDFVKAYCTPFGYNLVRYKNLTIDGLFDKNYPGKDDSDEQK
- ASSAY_DETAILS: crRNA (strand 1, pre-loaded); Mg2+; 40 mM Tris-HCl pH 7.5, 150 mM NaCl, 6 mM MgCl2, 1 mM DTT, 0.1% Tween-20, 0.2 mg/ml BSA; 25 C; 10 min per concentration, then washed
- RECORDED_CONDITIONS: tags: His6-TwinStrep-SUMO cleaved; N-terminal SNAP kept (SNAP-Surface 488); label: 3' end held by stalled T7 RNA polymerase
Answers are plain numbers, as −log10 of the molar value.

Record target 2 MT 5'PFS GUC 3'PFS UCU (mixed) RNA 1: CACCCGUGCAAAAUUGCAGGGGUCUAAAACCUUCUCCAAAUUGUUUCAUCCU RNA 2: GGGAAUGGAUCCACAUCUACGAAUUCGUCAGGAUGAAACAAUUUGGAGAAGUCUAGAUCGGAAGAGCACACGU . Reported pKd: 7.60

pKd recorded for this binder, target 1 insG 3' of 3,insG 3' of 3 (mixed) RNA 1: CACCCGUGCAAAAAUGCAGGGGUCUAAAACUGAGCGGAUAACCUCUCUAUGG RNA 2: GGGAAUGGAUCCACAUCUACGAAUUCGUACCAUAGAGAGGUUAUCCGCUGGCACCGAGAUCGGAAGAGCACACGU , is 8.26

Entry target 1 insG 3' of 22,insA 3' of 22 (mixed) RNA 1: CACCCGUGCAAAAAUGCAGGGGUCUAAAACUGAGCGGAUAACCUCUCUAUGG RNA 2: GGGAAUGGAUCCACAUCUACGAAUUCGUACGACAUAGAGAGGUUAUCCGCUCACCGAGAUCGGAAGAGCACACGU ; pKd = 7.51

Continue with the binder presented below.
pKd in this record for target 2 MT 5'PFS UUG 3'PFS AUG (mixed) RNA 1: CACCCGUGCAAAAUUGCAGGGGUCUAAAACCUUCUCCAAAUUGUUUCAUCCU RNA 2: GGGAAUGGAUCCACAUCUACGAAUUCUUGAGGAUGAAACAAUUUGGAGAAGAUGAGAUCGGAAGAGCACACGU : 7.88
